biological target: Interleukin-1 receptor-associated kinase 4 (Homo sapiens); assay: Inhibition of IRAK4 (unknown origin) by cell based assay
Sequence (Q9NWZ3 whole entry): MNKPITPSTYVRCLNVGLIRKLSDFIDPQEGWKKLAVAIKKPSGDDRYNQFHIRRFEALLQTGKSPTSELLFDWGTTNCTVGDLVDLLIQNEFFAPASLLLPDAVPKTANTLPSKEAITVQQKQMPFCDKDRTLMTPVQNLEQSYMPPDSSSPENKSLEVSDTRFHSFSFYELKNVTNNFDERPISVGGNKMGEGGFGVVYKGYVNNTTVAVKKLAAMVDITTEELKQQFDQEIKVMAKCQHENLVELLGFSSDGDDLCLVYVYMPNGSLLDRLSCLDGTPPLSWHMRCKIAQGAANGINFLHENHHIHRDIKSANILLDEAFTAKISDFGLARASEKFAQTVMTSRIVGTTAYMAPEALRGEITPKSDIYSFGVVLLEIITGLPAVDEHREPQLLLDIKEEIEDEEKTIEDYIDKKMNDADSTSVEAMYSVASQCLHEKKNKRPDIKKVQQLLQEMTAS
Measurement name: IC50 (nM)
Express the result in nM but write the number alone.

INSERT INTO assay_data (compound, tested_system, measurement_name, reading_unit, readout_number) VALUES
  ('CC(=O)N1CCN([C@H]2CC[C@H](Nc3ncnc4ccc(C#N)cc34)CC2)CC1', 'Interleukin-1 receptor-associated kinase 4 (Homo sapiens)', 'IC50', 'nM', 420),
  ('COC(=O)N1CCN([C@H]2CC[C@H](Nc3nc(Nc4cnn(C)c4)nc4ccc(C(C)(C)C#N)nc34)CC2)CC1', 'Interleukin-1 receptor-associated kinase 4 (Homo sapiens)', 'IC50', 'nM', 1600),
  ('COC(=O)N1CCN([C@H]2CC[C@H](Nc3nc(Nc4cnn(C)c4)nc4ccc(C#N)nc34)CC2)CC1', 'Interleukin-1 receptor-associated kinase 4 (Homo sapiens)', 'IC50', 'nM', 48),
  ('COC(=O)N1CCN([C@H]2CC[C@H](Nc3ncnc4ccc(C)nc34)CC2)CC1', 'Interleukin-1 receptor-associated kinase 4 (Homo sapiens)', 'IC50', 'nM', 840),
  ('N#Cc1ccc2ncnc(N[C@H]3CC[C@H](N4CCOCC4)CC3)c2c1', 'Interleukin-1 receptor-associated kinase 4 (Homo sapiens)', 'IC50', 'nM', 250),
  ('COC(=O)N1CCN([C@H]2CC[C@H](Nc3nc(Nc4cnn(C)c4)nc4ccc(C)nc34)CC2)CC1', 'Interleukin-1 receptor-associated kinase 4 (Homo sapiens)', 'IC50', 'nM', 140);

-- ask // fetch Interleukin-1 receptor-associated kinase 4 (Homo sapiens) IC50 for COC(=O)N1CCN([C@H]2CC[C@H](Nc3ncnc4ccc(C)cc34)CC2)CC1
-- reply 200

-- ask Lookup Cn1cc(Nc2nc(N[C@H]3CC[C@H](N4CCOCC4)CC3)c3cc(C#N)ccc3n2)cn1
-- reply 59

-- ask Input COC(=O)N1CCN([C@H]2CC[C@H](Nc3nc(Nc4cnn(C)c4)nc4ccc(C(C)C#N)nc34)CC2)CC1 (stereo partly drawn)
-- reply 130

-- ask Okay, and COC(=O)N1CCN([C@H]2CC[C@H](Nc3nc(Nc4cnn(C)c4)nc4ccc(C5(C#N)CC5)nc34)CC2)CC1 ?
-- reply 61

---

experiment: Intrinsic clearance in rat hepatocytes assessed per million cells; assay type: ADME, cell-based, Hepatocyte; conditions: read-out: CLH
Measurement name: hepatocyte CLint (µL/min/1e6 cells)
Give the number; µL/min/1e6 cells is assumed, so skip it.

-- ask Would you kindly share the measured hepatocyte CLint for COC(=O)N1CCN([C@H]2CC[C@H](Nc3nc(Nc4cnn(C)c4)nc4ccc(C#N)cc34)CC2)CC1 ?
-- reply 5.4

-- ask Can you check COC(=O)N1CCN([C@H]2CC[C@H](Nc3ncnc4ccc(C)cc34)CC2)CC1 next?
-- reply 10

-- ask Follow-up item: COC(=O)N1CCN([C@H]2CC[C@H](Nc3ncnc4ccc(C)nc34)CC2)CC1
-- reply 5.2

-- ask Next record, please: COC(=O)N1CCN([C@H]2CC[C@H](Nc3nc(Nc4cnn(C)c4)nc4ccc(CC#N)nc34)CC2)CC1
-- reply 10

-- ask Another compound to look at: COC(=O)N1CCN([C@H]2CC[C@H](Nc3nc(Nc4cnn(C)c4)nc4ccc(C(C)C#N)nc34)CC2)CC1 (stereo partly specified)
-- reply 26

---

experiment: Aqueous solubility in pH 7.4 phosphate buffer; type: physicochemical
// reported solubility for each item listed
Please state the value followed by its unit.

INSERT INTO results (smiles_representation, result) VALUES
  ('COC(=O)N1CCN([C@H]2CC[C@H](Nc3ncnc4ccc(C#N)cc34)CC2)CC1', '130 µM');

We next turn to a different compound, shown below.
-- ask Which solubility reading was recorded for the compound COC(=O)N1CCN([C@H]2CC[C@H](Nc3nc(Nc4cnn(C)c4)nc4ccc(CC#N)nc34)CC2)CC1 ?
-- reply 29 µM

---

biological target: UniProt P51617
Sequence (P51617 whole entry): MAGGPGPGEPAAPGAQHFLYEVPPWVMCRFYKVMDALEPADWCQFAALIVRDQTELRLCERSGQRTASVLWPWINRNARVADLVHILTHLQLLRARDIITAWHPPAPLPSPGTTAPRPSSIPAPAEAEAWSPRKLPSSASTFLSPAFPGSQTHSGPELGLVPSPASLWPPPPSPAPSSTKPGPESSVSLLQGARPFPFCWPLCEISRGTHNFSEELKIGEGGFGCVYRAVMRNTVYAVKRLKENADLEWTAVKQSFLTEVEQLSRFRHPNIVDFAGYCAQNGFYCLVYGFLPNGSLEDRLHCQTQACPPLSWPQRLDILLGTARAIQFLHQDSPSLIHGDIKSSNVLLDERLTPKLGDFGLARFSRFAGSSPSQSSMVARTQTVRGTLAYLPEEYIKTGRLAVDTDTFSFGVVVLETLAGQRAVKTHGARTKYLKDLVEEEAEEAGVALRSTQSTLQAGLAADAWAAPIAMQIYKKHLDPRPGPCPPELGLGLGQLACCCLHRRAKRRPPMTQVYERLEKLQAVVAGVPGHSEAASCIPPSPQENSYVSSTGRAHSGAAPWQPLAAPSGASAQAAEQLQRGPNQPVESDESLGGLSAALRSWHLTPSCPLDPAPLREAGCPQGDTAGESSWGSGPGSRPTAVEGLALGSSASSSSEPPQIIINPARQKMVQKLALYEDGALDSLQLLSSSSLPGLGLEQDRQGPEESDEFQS
Measurement name: pIC50
Please express pIC50 as -log10 of the molar concentration.

INSERT INTO measurements (smiles_representation, tested_system, readout_number) VALUES
  ('COC(=O)N1CCN([C@H]2CC[C@H](Nc3ncnc4ccc(C#N)cc34)CC2)CC1', 'UniProt P51617', 7.36);

Next item in the queue.
-- ask // lookup pIC50 for COC(=O)N1CCN([C@H]2CC[C@H](Nc3nc(Nc4cnn(C)c4)nc4ccc(CC#N)nc34)CC2)CC1
-- reply 7.57

---

assay: Intrinsic clearance in human hepatocytes assessed per million cells; format: ADME, cell-based, Hepatocyte; details: read-out: CLH
Measurement name: hepatocyte CLint

-- ask Given COC(=O)N1CCN([C@H]2CC[C@H](Nc3nc(Nc4cnn(C)c4)nc4ccc(C#N)cc34)CC2)CC1 , state its recorded hepatocyte CLint.
-- reply < 1 µL/min/1e6 cells

-- ask Try COC(=O)N1CCN([C@H]2CC[C@H](Nc3nc(Nc4cnn(C)c4)nc4ccc(C5(C#N)CC5)nc34)CC2)CC1 next.
-- reply 4 µL/min/1e6 cells

-- ask Item: CC(=O)N1CCN([C@H]2CC[C@H](Nc3nc(Nc4cnn(C)c4)nc4ccc(C#N)cc34)CC2)CC1
-- reply < 1 µL/min/1e6 cells

-- ask Follow-up item: CC(=O)N1CCN([C@H]2CC[C@H](Nc3ncnc4ccc(C#N)cc34)CC2)CC1
-- reply < 1 µL/min/1e6 cells

---

assay: Clearance in rat at 0.5 mg/kg, iv; assay type: ADME, organism-based; settings: in vivo
The label is true (1) for clearance below 20 mL/min/kg and false (0) for clearance equal to or exceeding 20 mL/min/kg.

Look over these answered cases.
INSERT INTO results (smiles_representation, label) VALUES
  ('COC(=O)N1CCN([C@H]2CC[C@H](Nc3nc(Nc4cnn(C)c4)nc4ccc(C#N)cc34)CC2)CC1', 'true (1)'),
  ('Cn1cc(Nc2nc(N[C@H]3CC[C@H](N4CCOCC4)CC3)c3cc(C#N)ccc3n2)cn1', 'false (0)'),
  ('CC(=O)N1CCN([C@H]2CC[C@H](Nc3ncnc4ccc(C#N)cc34)CC2)CC1', 'true (1)'),
  ('COC(=O)N1CCN([C@H]2CC[C@H](Nc3ncnc4ccc(C#N)cc34)CC2)CC1', 'true (1)');

# input for lookup
-- ask API: query returns whether the compound falls strictly under 20 mL/min/kg in clearance. Query: CC(=O)N1CCN([C@H]2CC[C@H](Nc3nc(Nc4cnn(C)c4)nc4ccc(C#N)cc34)CC2)CC1
-- reply true (1)

---

biological target: UniProt:P49760; assay: Inhibition of human recombinant CLK2 expressed in Baculovirus system
Sequence (P49760 whole entry): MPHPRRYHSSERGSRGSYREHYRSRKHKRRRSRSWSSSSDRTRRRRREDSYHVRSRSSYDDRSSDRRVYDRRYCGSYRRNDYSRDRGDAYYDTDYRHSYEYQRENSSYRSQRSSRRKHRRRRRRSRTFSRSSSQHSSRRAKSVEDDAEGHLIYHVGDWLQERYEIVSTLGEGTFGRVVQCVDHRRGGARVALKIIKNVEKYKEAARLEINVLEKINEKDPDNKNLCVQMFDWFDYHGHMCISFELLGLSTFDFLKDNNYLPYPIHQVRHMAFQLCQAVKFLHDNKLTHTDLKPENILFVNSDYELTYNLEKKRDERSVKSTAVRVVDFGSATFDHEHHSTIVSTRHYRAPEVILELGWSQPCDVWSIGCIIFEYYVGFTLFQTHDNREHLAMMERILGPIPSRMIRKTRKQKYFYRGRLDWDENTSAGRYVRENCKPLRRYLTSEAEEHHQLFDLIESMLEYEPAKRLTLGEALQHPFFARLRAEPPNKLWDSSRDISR
Measurement name: pIC50
API: returns pIC50 as number; meaning -log10 of concentration in mol/L.

INSERT INTO measurements (smiles_representation, readout_number) VALUES
  ('COC(=O)N1CCN([C@H]2CC[C@H](Nc3nc(Nc4cnn(C)c4)nc4ccc(CC#N)nc34)CC2)CC1', 5.85);

From here, focus on the item given below.
-- ask Field request: pIC50 | item: COC(=O)N1CCN([C@H]2CC[C@H](Nc3ncnc4ccc(C#N)cc34)CC2)CC1
-- reply 6.44

---

test: Intrinsic clearance in rat hepatocytes assessed per million cells; assay type: ADME, cell-based, Hepatocyte; conditions: read-out: CLH
Measurement name: hepatocyte CLint

Observe how each entry below is paired with its result.
INSERT INTO assay_data (smiles_representation, measurement_name, result) VALUES
  ('COC(=O)N1CCN([C@H]2CC[C@H](Nc3ncnc4ccc(C#N)cc34)CC2)CC1', 'hepatocyte CLint', '< 1.6 µL/min/1e6 cells'),
  ('Cn1cc(Nc2nc(N[C@H]3CC[C@H](N4CCOCC4)CC3)c3cc(C#N)ccc3n2)cn1', 'hepatocyte CLint', '18 µL/min/1e6 cells'),
  ('CC(=O)N1CCN([C@H]2CC[C@H](Nc3nc(Nc4cnn(C)c4)nc4ccc(C#N)cc34)CC2)CC1', 'hepatocyte CLint', '3.2 µL/min/1e6 cells'),
  ('COC(=O)N1CCN([C@H]2CC[C@H](Nc3nc(Nc4cnn(C)c4)nc4ccc(C#N)nc34)CC2)CC1', 'hepatocyte CLint', '2.6 µL/min/1e6 cells'),
  ('COC(=O)N1CCN([C@H]2CC[C@H](Nc3nc(Nc4cnn(C)c4)nc4ccc(C(C)(C)C#N)nc34)CC2)CC1', 'hepatocyte CLint', '18 µL/min/1e6 cells'),
  ('COC(=O)N1CCN([C@H]2CC[C@H](Nc3nc(Nc4cnn(C)c4)nc4ccc(C)nc34)CC2)CC1', 'hepatocyte CLint', '10 µL/min/1e6 cells');

-- ask Quick one: hepatocyte CLint of COC(=O)N1CCN([C@H]2CC[C@H](Nc3nc(Nc4cnn(C)c4)nc4ccc(C5(C#N)CC5)nc34)CC2)CC1 ?
-- reply 7.3 µL/min/1e6 cells

-- ask Cool, now N#Cc1ccc2ncnc(N[C@H]3CC[C@H](N4CCOCC4)CC3)c2c1
-- reply 3.4 µL/min/1e6 cells

Reference for the values: ChEMBL document CHEMBL4321825
